I'd be grateful if you could share measured GI50 for these entries.
molecular target: Ba/F3 EGFR-D770-N771ins_SVD (Homo sapiens, UniProt P00533, DUP768-770, cells depend on it); test: Proliferation of Ba/F3 EGFR mutant cell line (CellTiter-Glo); type: cell-based, mouse; conditions: 72 h to 144 h, read-out: Ba/F3 EGFR-D770-N771ins_SVD IC50
Sequence (P00533 with tags, fused parts or gaps DUP768-770): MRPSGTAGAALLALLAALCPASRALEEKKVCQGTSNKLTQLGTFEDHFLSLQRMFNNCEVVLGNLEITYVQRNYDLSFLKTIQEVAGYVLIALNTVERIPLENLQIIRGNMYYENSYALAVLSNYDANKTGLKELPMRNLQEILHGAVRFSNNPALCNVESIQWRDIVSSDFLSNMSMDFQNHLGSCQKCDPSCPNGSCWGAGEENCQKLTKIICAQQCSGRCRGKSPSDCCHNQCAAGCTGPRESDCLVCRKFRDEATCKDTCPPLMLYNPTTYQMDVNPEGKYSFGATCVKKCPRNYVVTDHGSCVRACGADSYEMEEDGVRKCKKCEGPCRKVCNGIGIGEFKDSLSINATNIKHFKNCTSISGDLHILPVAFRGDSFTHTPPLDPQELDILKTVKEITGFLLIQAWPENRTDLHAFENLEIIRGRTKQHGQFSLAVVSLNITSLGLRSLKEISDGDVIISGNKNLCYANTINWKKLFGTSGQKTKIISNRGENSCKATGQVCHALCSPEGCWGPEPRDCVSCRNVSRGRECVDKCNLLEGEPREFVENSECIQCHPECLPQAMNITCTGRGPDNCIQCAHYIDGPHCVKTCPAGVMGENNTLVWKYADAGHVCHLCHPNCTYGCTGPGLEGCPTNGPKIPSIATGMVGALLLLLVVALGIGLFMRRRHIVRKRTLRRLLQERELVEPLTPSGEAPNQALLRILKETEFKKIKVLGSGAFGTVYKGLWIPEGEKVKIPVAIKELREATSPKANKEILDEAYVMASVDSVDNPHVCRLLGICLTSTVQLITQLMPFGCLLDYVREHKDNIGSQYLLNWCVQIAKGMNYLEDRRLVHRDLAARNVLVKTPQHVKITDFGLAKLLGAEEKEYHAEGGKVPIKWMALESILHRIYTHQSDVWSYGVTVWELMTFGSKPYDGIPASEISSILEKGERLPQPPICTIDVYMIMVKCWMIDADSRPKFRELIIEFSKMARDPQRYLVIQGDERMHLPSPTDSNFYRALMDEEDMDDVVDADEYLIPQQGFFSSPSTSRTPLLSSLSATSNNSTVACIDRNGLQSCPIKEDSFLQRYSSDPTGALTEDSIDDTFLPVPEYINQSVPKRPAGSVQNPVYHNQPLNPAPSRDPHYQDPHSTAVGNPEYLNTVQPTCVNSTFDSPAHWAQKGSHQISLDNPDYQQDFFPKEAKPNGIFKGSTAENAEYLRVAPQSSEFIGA
Give bare numbers, in nM.

{"smilesText": "C=CC(=O)Nc1cc(Nc2ncc(C#N)c(-c3cn(C4CC4)c4cc(OC)c(F)cc34)n2)c(OC)cc1N(C)CCN(C)C", "unitSymbol": "nM", "GI50": 13.4}
{"smilesText": "C=CC(=O)Nc1cc(Nc2ncc(C#N)c(-c3cn(C4CC4)c4ccccc34)n2)c(OC)cc1N1C[C@H]2CN(C)C[C@H]2C1", "unitSymbol": "nM", "GI50": 24.8}
{"smilesText": "C=CC(=O)Nc1cc(Nc2ncc(C#N)c(-c3cn(C4CC4)c4c(OC)cccc34)n2)c(OC)cc1N(C)CCN(C)C", "unitSymbol": "nM", "GI50": 45.4}
{"smilesText": "C=CC(=O)Nc1cc(Nc2ncc(C#N)c(-c3cn(C4CC4)c4ccc(OC)cc34)n2)c(OC)cc1N(C)CCN(C)C", "unitSymbol": "nM", "GI50": 45.1}
{"smilesText": "C=CC(=O)Nc1cc(Nc2ncc(-c3ccnn3C)c(-c3cn(C4CC4)c4ccccc34)n2)c(OC)cc1N1C[C@H]2CN(C)C[C@H]2C1", "unitSymbol": "nM", "GI50": 47.4}

Would you kindly look at the next entry?
Consider the compound C=CC(=O)Nc1cc(Nc2ncc(-c3nccs3)c(-c3cn(C4CC4)c4ccccc34)n2)c(OC)cc1N1C[C@H]2CN(C)C[C@H]2C1 and give its measured GI50.
53.4

----------
target: Ba/F3 EGFR-D770-N771ins_SVD (Homo sapiens, UniProt P00533, DUP768-770, cells depend on it); assay: Proliferation of Ba/F3 EGFR mutant cell line (CellTiter-Glo); assay type: cell-based, mouse; conditions: 72 h to 144 h, read-out: Ba/F3 EGFR-D770-N771ins_SVD IC50
propertyLabel: GI50 (nM)
Give bare numbers, in nM.

Past entries and their recorded results:
{"compound": "C=CC(=O)Nc1cc(Nc2ncc(C#N)c(-c3cn(C4CC4)c4ccccc34)n2)c(OC)cc1N(C)CCN(C)C", "recordedResult": 10.4}
{"compound": "C=CC(=O)Nc1cc(Nc2ncc(C#N)c(-c3cn(C4CC4)c4ccccc34)n2)c(OC)cc1N1C[C@H]2CCN(C)[C@H]2C1", "recordedResult": 49.1}
{"compound": "C=CC(=O)Nc1cc(Nc2ncc(-c3ncco3)c(-c3cn(C4CC4)c4ccccc34)n2)c(OC)cc1N1C[C@H]2CN(C)C[C@H]2C1", "recordedResult": 27.1}
{"compound": "CC#CC(=O)Nc1cc(Nc2ncc(C(=O)OC(C)C)c(-c3cn(C)c4ccccc34)n2)c(OC)cc1N(C)CC1CCCN1C (centres unmarked)", "recordedResult": 76}

Look up GI50 for the entries below, preserving their order.
1. C=CC(=O)Nc1cc(Nc2ncc(-c3ccccc3)c(-c3cn(C4CC4)c4ccccc34)n2)c(OC)cc1N1C[C@H]2CN(C)C[C@H]2C1
2. C=CC(=O)Nc1cc(Nc2ncc(C#N)c(-c3cn(C4COC4)c4ccccc34)n2)c(OC)cc1N(C)CCN(C)C
3. C=CC(=O)Nc1cc(Nc2ncc(-c3ccc(F)cc3F)c(-c3cn(C4CC4)c4ccccc34)n2)c(OC)cc1N1C[C@H]2CN(C)C[C@H]2C1
4. C=CC(=O)Nc1cc(Nc2ncc(-c3ncco3)c(-c3cn(C4CC4)c4ccccc34)n2)c(OC)cc1N(C)CCN(C)C

[33.1, 21.2, 40, 16.6]

----------
tested on: Ba/F3 EGFR-D770-N771ins_SVD xenograft; assay: In vivo pharmacodynamic study in mouse pro-B cell Ba/F3 EGFR-D770-N771ins_SVD xenograft model; settings: 40 mg/kg, oral, 1 time/day, 14 days
propertyLabel: TGI (%) Day 14
Field: value (include unit after the number)

Provide TGI (%) Day 14 values for the following items, in order.
1. C=CC(=O)Nc1cc(Nc2ncc(C#N)c(-c3cn(C4CC4)c4ccccc34)n2)c(OC)cc1N(C)CCN(C)C
2. C=CC(=O)Nc1cc(Nc2ncc(-c3ncco3)c(-c3cn(C4CC4)c4ccccc34)n2)c(OC)cc1N(C)CCN(C)C
3. C=CC(=O)Nc1cc(Nc2nccc(-c3cn(C)c4ccccc34)n2)c(OC)cc1N(C)CCN(C)C
4. C=CC(=O)Nc1cc(Nc2ncc(-c3ncco3)c(-c3cn(C)c4ccccc34)n2)c(OC)cc1N(C)CCN(C)C

89.06%
74.25%
51.60%
82.77%

----------
biological target: Ba/F3 EGFR-D770-N771ins_SVD (Homo sapiens, UniProt P00533, DUP768-770, cells depend on it); assay: Proliferation of Ba/F3 EGFR mutant cell line (CellTiter-Glo); format: cell-based, mouse; conditions: 72 h to 144 h, read-out: Ba/F3 EGFR-D770-N771ins_SVD IC50
Would you mind telling me the reported GI50 of each entry?

Observe how each entry below is paired with its result.
{"molecule": "C=CC(=O)Nc1cc(Nc2ncc(C#N)c(-c3cn(C4CC4)c4cc(OC)ccc34)n2)c(OC)cc1N(C)CCN(C)C", "subjectOfTest": "Ba/F3 EGFR-D770-N771ins_SVD (Homo sapiens, UniProt P00533, DUP768-770, cells depend on it)", "GI50": "26.7 nM"}
{"molecule": "C=CC(=O)Nc1cc(Nc2ncc(-c3ncco3)c(-c3cn(C4CC4)c4ccccc34)n2)c(OC)cc1N(C)CC1CCCN1C (stereo not drawn)", "subjectOfTest": "Ba/F3 EGFR-D770-N771ins_SVD (Homo sapiens, UniProt P00533, DUP768-770, cells depend on it)", "GI50": "34.6 nM"}
{"molecule": "C=CC(=O)Nc1cc(Nc2ncc(-c3cnn(C)c3)c(-c3cn(C4CC4)c4ccccc34)n2)c(OC)cc1N1C[C@H]2CCN(C)[C@H]2C1", "subjectOfTest": "Ba/F3 EGFR-D770-N771ins_SVD (Homo sapiens, UniProt P00533, DUP768-770, cells depend on it)", "GI50": "15.4 nM"}
{"molecule": "C=CC(=O)Nc1cc(Nc2ncc(-c3cnn(C)c3)c(-c3cn(C4CC4)c4ccccc34)n2)c(OC)cc1N1C[C@@H]2CCN(C)[C@@H]2C1", "subjectOfTest": "Ba/F3 EGFR-D770-N771ins_SVD (Homo sapiens, UniProt P00533, DUP768-770, cells depend on it)", "GI50": "15.1 nM"}
{"molecule": "C=CC(=O)Nc1cc(Nc2ncc(C(=O)OC(C)C)c(-c3cn(C)c4ccccc34)n2)c(OC)cc1N1C[C@H]2CN(C)C[C@H]2C1", "subjectOfTest": "Ba/F3 EGFR-D770-N771ins_SVD (Homo sapiens, UniProt P00533, DUP768-770, cells depend on it)", "GI50": "15 nM"}

Moving on to the next molecule.
I'd like to know its GI50. The molecule in question is C=CC(=O)Nc1cc(Nc2ncc(-c3cnn(C)c3)c(-c3cn(C4CC4)c4ccccc34)n2)c(OC)cc1N1C[C@H]2CN(C)C[C@H]2C1
21 nM

----------
assay: Plasma stability test, human plasma; assay type: in vitro ADME; conditions: 37° C.
propertyLabel: half-life at 5 µM (h)
Answers are plain numbers, in h.

Could you share which half-life at 5 µM value was measured for C=CC(=O)Nc1cc(Nc2ncc(C#N)c(-c3cn(C4CC4)c4ccccc34)n2)c(OC)cc1N(C)CCN(C)C ?
1.38
